Target: SaCas9 (Staphylococcus aureus, UniProt J7RUA5)
Sequence (J7RUA5 whole entry): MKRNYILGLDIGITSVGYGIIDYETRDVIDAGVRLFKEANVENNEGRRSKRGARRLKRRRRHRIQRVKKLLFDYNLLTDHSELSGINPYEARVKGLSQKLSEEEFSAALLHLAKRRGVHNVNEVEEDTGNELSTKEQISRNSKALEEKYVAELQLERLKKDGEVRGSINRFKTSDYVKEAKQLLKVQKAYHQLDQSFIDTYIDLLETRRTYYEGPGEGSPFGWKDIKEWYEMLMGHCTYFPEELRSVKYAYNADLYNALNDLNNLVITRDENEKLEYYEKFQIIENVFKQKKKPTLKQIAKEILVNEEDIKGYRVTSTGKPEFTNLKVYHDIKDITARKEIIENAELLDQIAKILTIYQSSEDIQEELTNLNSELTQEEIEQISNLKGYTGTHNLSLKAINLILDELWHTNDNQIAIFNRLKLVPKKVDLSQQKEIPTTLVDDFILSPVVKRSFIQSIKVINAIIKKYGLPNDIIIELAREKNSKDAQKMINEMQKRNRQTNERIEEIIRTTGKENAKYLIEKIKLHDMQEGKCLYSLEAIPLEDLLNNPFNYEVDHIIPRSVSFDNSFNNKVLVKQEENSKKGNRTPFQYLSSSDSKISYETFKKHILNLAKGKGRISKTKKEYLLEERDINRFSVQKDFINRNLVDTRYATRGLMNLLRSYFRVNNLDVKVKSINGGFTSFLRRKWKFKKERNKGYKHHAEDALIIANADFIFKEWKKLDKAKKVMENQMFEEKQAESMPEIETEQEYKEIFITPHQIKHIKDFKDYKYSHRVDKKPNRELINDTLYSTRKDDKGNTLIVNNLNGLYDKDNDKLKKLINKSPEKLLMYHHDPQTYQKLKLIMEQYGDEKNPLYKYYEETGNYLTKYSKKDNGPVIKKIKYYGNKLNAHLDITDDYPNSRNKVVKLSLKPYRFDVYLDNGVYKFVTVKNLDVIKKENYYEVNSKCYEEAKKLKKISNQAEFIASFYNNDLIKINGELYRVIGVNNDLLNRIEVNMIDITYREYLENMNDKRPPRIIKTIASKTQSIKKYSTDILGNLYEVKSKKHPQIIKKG
Experiment: Strand displacement assay, SaCas9 primary screen
Format: biochemical
Details: SaCas9 primary screen, Auto Zscore, replicate 2
Just a reminder that ties go to not fulfilled: only Auto Zscore Rep 2 strictly below 0.1 counts as fulfilled.

// below: answered molecules
- COc1ccc(-c2nc(N)s[n+]2-c2ccccc2)cc1: not fulfilled
- CCN(Cc1ccccc1)c1ccc(NS(=O)(=O)c2cc(OC)ccc2OC)cc1C(=O)O: fulfilled
- O=C(O)c1ccc(N2CCN(c3ccccn3)CC2)c(NC(=O)c2ccc(Br)cc2)c1: not fulfilled
- Cc1ccc(CSc2nc3c(c(=O)[nH]2)C(c2ccc(O)c(O)c2)CC(=O)N3)cc1 (centres unmarked): fulfilled
- CC(C)NC(=O)CN1CCN(c2ccc(C(=O)O)cc2NC(=O)c2ccccc2Cl)CC1: not fulfilled
- Cc1ccccc1OCc1nn2c(C(C)C)nnc2s1: not fulfilled

Say whether its Auto Zscore Rep 2 is strictly beneath 0.1. Entry: Cc1cccc(NC(=O)C2CCCN(c3ccc(-c4ccccc4)nn3)C2)c1 (centres unmarked)
fulfilled

Say whether its Auto Zscore Rep 2 is strictly beneath 0.1. Entry: Cc1nnc(NC(=O)CSc2ccc3nnc(-c4cccc(F)c4)n3n2)s1
not fulfilled

====

Some compounds, each annotated with its measured SpCas9 eGFP disruption Rep1.
Target: SpCas9 (Streptococcus pyogenes serotype M1, UniProt Q99ZW2)
Sequence (Q99ZW2 whole entry): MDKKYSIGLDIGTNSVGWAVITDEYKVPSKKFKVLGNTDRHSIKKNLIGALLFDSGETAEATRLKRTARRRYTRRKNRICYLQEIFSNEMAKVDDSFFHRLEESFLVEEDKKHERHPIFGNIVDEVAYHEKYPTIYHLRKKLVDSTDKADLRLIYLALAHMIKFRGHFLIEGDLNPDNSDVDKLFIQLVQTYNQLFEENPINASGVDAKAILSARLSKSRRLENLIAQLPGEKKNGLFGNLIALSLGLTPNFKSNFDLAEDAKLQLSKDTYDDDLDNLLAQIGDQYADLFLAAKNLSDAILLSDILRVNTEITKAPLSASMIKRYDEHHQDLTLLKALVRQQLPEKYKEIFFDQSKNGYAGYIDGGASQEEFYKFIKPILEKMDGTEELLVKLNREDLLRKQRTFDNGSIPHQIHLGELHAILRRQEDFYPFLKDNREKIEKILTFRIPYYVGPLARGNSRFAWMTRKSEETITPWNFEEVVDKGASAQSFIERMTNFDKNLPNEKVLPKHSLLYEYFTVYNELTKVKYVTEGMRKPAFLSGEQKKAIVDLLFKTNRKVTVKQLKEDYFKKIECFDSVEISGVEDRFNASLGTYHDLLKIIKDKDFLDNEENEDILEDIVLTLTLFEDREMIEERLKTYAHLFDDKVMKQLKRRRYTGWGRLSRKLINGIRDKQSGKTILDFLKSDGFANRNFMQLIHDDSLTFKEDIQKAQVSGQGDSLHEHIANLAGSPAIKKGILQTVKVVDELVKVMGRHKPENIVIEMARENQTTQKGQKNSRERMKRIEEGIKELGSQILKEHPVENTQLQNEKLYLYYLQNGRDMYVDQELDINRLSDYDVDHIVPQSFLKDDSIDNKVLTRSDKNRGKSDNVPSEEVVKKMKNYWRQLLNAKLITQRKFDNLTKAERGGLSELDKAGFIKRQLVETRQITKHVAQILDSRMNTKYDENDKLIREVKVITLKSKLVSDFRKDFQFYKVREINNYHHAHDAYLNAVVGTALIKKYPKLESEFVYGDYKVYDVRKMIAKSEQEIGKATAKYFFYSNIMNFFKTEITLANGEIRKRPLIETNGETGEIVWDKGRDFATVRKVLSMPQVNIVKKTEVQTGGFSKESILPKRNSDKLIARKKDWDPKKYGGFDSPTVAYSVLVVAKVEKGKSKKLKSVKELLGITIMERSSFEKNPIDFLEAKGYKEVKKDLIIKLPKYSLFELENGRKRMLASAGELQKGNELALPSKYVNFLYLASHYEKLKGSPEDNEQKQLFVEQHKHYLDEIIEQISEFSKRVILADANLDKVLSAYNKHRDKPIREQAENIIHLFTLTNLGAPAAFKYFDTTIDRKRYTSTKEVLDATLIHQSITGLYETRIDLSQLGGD
Experiment: eGFP disruption assay, SpCas9, U2OS.eGFP.PEST cells
Type: cell-based
Conditions: replicate 1, raw readout; Cas9 = lower control, Ctrl = upper control
Output: the number by itself.

Answered cases to consult:
- O=C(CSc1nccn1-c1cccc(F)c1)N1CCN(c2ccc(O)cc2)CC1 [Compound T5535170]: 67.964
- O=C(NCC1CCCO1)c1ccc(Oc2ccnc(-c3ccc(F)cc3)n2)cc1 (stereo not shown) [Compound L662-0604]: 77.166
- Cc1nc2ccccc2c(C)c1CC(=O)N1CCN(c2ccc(O)cc2)CC1 [Compound T5461482]: 66.842

Next compound, please.
Report SpCas9 eGFP disruption Rep1 under test system SpCas9 (Streptococcus pyogenes serotype M1, UniProt Q99ZW2) for O=C(CCS(=O)(=O)c1ccc(Cl)cc1)Nc1nc(-c2ccncc2)cs1 [Compound G786-1325] .
86.012

====

Target: UniProt:Q99ZW2
Assay: eGFP disruption assay, SpCas9, U2OS.eGFP.PEST cells
Type: cell-based
Conditions: replicate 2
Measured metric: Z socre Rep2
Output: the number by itself.

Answered cases to consult:
* CS(=O)(=O)Nc1cnc(N2CCC(C(N)=O)(N3CCCCC3)CC2)c(C(=O)O)c1 | −3.08
* Cc1ccccc1OCc1nn2c(C(C)C)nnc2s1 | −0.36

Next molecule, please.
Respond only with Z socre Rep2 recorded for NC1=C(c2nc3ccccc3s2)C(=O)CN1N=Cc1ccc(-c2ccc(S(=O)(=O)Nc3ncccn3)cc2)o1
11.57

====

Target: SpCas9 (Streptococcus pyogenes serotype M1)
Experiment: eGFP disruption assay, SpCas9, U2OS.eGFP.PEST cells
Format: cell-based
Details: replicate 2
Measured metric: Normalized Z rep2
Output: the number by itself.

Answered cases to consult:
- COc1ccc(CCc2nnc3sc(-c4ccncc4)nn23)cc1OC: −0.29
- O=C(NCc1ccc2c(c1)OCO2)c1cccc(Oc2cc(-c3ccccc3)ncn2)c1: −0.01
- Fc1cccc(-c2nnc3sc(-c4ccc5ccccc5n4)nn23)c1: −0.34
- CCN(Cc1ccccc1)c1ccc(NS(=O)(=O)c2ccc(OC)cc2)cc1C(=O)O: −0.10

Respond only with Normalized Z rep2 recorded for Cc1cccc(C(=O)Nc2ccccc2Sc2cc(C)nc3ncnn23)c1
−0.34

Respond only with Normalized Z rep2 recorded for CCc1cccc(-n2nnnc2N2CCN(C(=O)Nc3ccc(C)cc3Cl)CC2)c1
0.06

Respond only with Normalized Z rep2 recorded for CN(C)c1ccc(-c2nn3c(-c4ccc5ccccc5n4)nnc3s2)cc1
−0.09

Respond only with Normalized Z rep2 recorded for Fc1ccc(-c2nn3c(-c4ccncc4)nnc3s2)cc1Br
−0.09

Respond only with Normalized Z rep2 recorded for COc1ccc(-c2cc3c(C)nc(N)nc3n(C3CCC(OCCO)CC3)c2=O)cn1 (stereo not drawn)
−0.89

Respond only with Normalized Z rep2 recorded for Nc1c(C(=O)NCC2CCCO2)sc(=S)n1-c1ccc(Cl)cc1 (stereo not drawn)
−0.12

Respond only with Normalized Z rep2 recorded for CN(C)c1cccc(-c2nn3c(-c4ccc5ccccc5c4)nnc3s2)c1
−0.59

Respond only with Normalized Z rep2 recorded for CN(C)S(=O)(=O)Nc1ccc(N2CCC(CCN3CCOCC3)CC2)c(C(=O)O)c1
−0.24

Respond only with Normalized Z rep2 recorded for CC(C)(C)OC(=O)NCCOc1ccc(S(=O)(=O)CCC(=O)Nc2nc(-c3ccncc3)cs2)cc1
0.06

Respond only with Normalized Z rep2 recorded for Cc1nn(-c2ccccc2)c(C)c1CCc1nn2c(-c3cnccn3)nnc2s1
−0.21
